Target: Carbonic anhydrase 2 (Homo sapiens, UniProt P00918)
Assay Readout: Ki (nM)

CN(C)CCOC(=O)c1ccc(S(=O)(=O)Nc2nnc(S(N)(=O)=O)s2)cc1
1.5

1: NS(=O)(=O)c1nnc(NS(=O)(=O)c2cccc(C(=O)OCCO)c2)s1
2: NS(=O)(=O)c1nnc(NS(=O)(=O)c2ccc(C(=O)O)cc2)s1
// query Between 1 and 2 , which one has the lower reported Ki value? Answer by stating the label of the chosen item.
// result 1
(1: 3.1 nM, 2: 4.6 nM)

a: COCCOC(=O)c1ccc(S(=O)(=O)/N=c2/sc(S(N)(=O)=O)nn2C)cc1
b: CC(CN(C)C)OC(=O)c1ccc(S(=O)(=O)Nc2nnc(S(N)(=O)=O)s2)cc1 (stereo not given)
// query Lab note: check whether a or b has the lower measured Ki. Mark your answer with the label of the selected entry.
// result b
(b: 1.4 nM, a: 3.1 nM)

A: COCCOC(=O)c1cccc(S(=O)(=O)/N=c2/sc(S(N)(=O)=O)nn2C)c1
B: CCN(CC)CCNC(=O)c1ccc(S(=O)(=O)/N=c2/sc(S(N)(=O)=O)nn2C)cc1
// query Compare the recorded Ki of A and B ; state which is larger. I would appreciate it if you answered with the label of your choice.
// result A

a: Cn1nc(S(N)(=O)=O)s/c1=N/S(=O)(=O)c1ccc(C(=O)OCCO)cc1
b: CC(CN(C)C)OC(=O)c1cccc(S(=O)(=O)/N=c2/sc(S(N)(=O)=O)nn2C)c1 (stereo not given)
// query Lower Ki: a or b ? Your answer should be the label of the entry you select.
// result b

P: CC(CN(C)C)OC(=O)c1cccc(S(=O)(=O)Nc2nnc(S(N)(=O)=O)s2)c1 (stereo not given)
Q: NS(=O)(=O)c1nnc(NS(=O)(=O)c2ccc(C(=O)OCCO)cc2)s1
// query // which entry has the larger Ki value, P or Q ? API: response body contains the label of the selected item.
// result Q
